Measured growth inhibition values are reported for all entries that follow.
Experiment: NCI Yeast Anticancer Drug Screen. Data for the mlh1 rad18 strain (AID 175)
Conditions: S. cerevisiae mlh1 rad18 strain growth inhibition; at 50.0 µM; active compounds read high
Method: Growth inhibition of yeast strains with defined genetic alterations is measured as a screen for potential anti-cancer activity. Selected strains with alterations in DNA damage repair or cell cycle control were exposed to compounds and growth inhibition was measured relative to vehicle treated controls. The strain used in this assay is mlh1 rad18
About 79,000 compounds went through this panel and 15% of them were active in at least one assay; those are over-represented in the sample as a whole.
Entry rule: numbers only, all in %.

Exercise: Return the recorded growth inhibition value; entry: Cc1ccc2c(c1)C1(C)c3cc(C)ccc3SP1S2 (stereo not drawn)
Solution: 46.9

Exercise: Return reported growth inhibition. Input compound: CCC1(CC)C(=O)[N-]C(=O)[N-]C1=O.[Au+].[Au+].c1ccc([PH+](c2ccccc2)c2ccccc2)cc1.c1ccc([PH+](c2ccccc2)c2ccccc2)cc1
Solution: 4.65

Exercise: Give the reported value of growth inhibition for this record: C=C1C(C)C2C(Cc3ccccc3)NC(=O)C23C(OC(C)=O)C=CC(C)(O)C(=O)C(C)C/C=C/C3C1O (stereo not drawn)
Solution: 84.1

Exercise: Consider the compound CC(=O)OC1C(O)C(C)OC(OC2C(OC(=O)C3CCC4C(C3)OC3(CC(OC(=O)/C=C/c5ccccc5)C(C)CO3)C43CO3)OC(C)C(O)C2OC(C)=O)C1O (stereo not drawn) . State its measured growth inhibition.
Solution: 91.6

Exercise: Tell me growth inhibition reported for COC(=O)C1=C(C)N2CCSC2(C)C(C(=O)OC)C1c1cccc(Cl)c1 (stereo not drawn)
Solution: 73.2

Exercise: Tell me its growth inhibition given Cc1ccc(C(=O)CCl)o1 as the entry.
Solution: 98.5

Exercise: Answer with reported growth inhibition of CC1=CC2OC3CC4OC(=O)/C=C/C=C/C(=O)OCCC(C)C(O)C(=O)OCC2(CC1O)C4(C)C31CO1 (stereo not drawn)
Solution: 91.5

Exercise: Dear colleague, please send me the reported growth inhibition for CC(C)(C)OC(=O)NC(CSC(c1ccccc1)(c1ccccc1)c1cccs1)C(=O)O (stereo not drawn) when you can.
Solution: 83.2

----------
experiment: NCI Yeast Anticancer Drug Screen. Data for the mlh1 rad18 strain (AID 175); conditions: S. cerevisiae mlh1 rad18 strain growth inhibition; at 50.0 µM; active compounds read high
Compounds without any hit were thinned out: in the full panel of roughly 79,000, 15% have a hit. Activity calls are given as the source filed them. Cut-off read from the data, not from the text of the source: active = growth inhibition above about 70%; inactive = the rest.
observed.property: growth inhibition

Exercise: State its growth inhibition: Oc1c(-c2ccccc2)cc(-[n+]2c(-c3ccccc3)cc(-c3ccccc3)cc2-c2ccccc2)cc1-c1ccccc1
Solution: 91.5% (active)

Next:
Exercise: # return recorded growth inhibition for entry CCc1ccc([O-])c(C=NCCCN(C)CCCN=Cc2cc(C)ccc2[O-])c1.[Co+3].[N-]=[N+]=[N-]
Solution: 0.85% (inactive)

Exercise: Note down growth inhibition recorded for CCN(CCCl)c1cc(CN(C)C)cc(NC(=O)c2ccc(C(=O)Nc3cc(CN(C)C)cc(N(CC)CCCl)c3)cc2)c1
Solution: 91.7% (active)

Exercise: Give growth inhibition for CC(=O)OC1CCC2(C)C3CCC4(C)C(OC(=O)c5ccccc5)CCC4C3CC(Br)C2(O)C1 (centres undefined)
Solution: 85.7% (active)

Exercise: State its growth inhibition: c1ccc(P(CC[As](c2ccccc2)c2ccccc2)CC[As](c2ccccc2)c2ccccc2)cc1
Solution: 88.6% (active)

Exercise: Tell me its growth inhibition given OCC(O)C(O)CO (centres undefined) (tested in a mixture with another compound) as the entry.
Solution: -9.65% (inactive)

----------
experiment: NCI Yeast Anticancer Drug Screen. Data for the mec2-1 strain (AID 157); settings: S. cerevisiae mec2-1 strain, at 3.7 µM
About 79,000 compounds went through this panel and 15% of them were active in at least one assay; those are over-represented in the sample as a whole. Activity calls are given as the source filed them. Cut-off read from the data, not from the text of the source: active = growth inhibition above about 70%; inactive = the rest.
Returns: one label drawn from t (active), f (inactive)

# example entries with known answers
Exercise: Answer briefly: the call reported for CNC(=O)OCC1C2=C(C(=O)C(C)=C(N)C2=O)N2CC3C(N3C)C12OC (centres undefined) in this assay.
Solution: f

Exercise: Tell me the recorded outcome of this test for COC1C(O)C(C)OC(OC2C(Oc3cccc4c(O)c5c(=O)oc6ccc(C)c7c(=O)oc(c34)c5c67)OC(C)C(O)C2O)C1O (centres undefined) .
Solution: f

Exercise: Please indicate how the test categorized CC(=O)[O-].O=C([CH-]C(=O)c1ccccc1)c1ccccc1.O=C([CH-]C(=O)c1ccccc1)c1ccccc1.[Sm+3] .
Solution: f

Okay, now this compound:
Exercise: Any idea what this test logged for CCC1(OC(=O)CN)C(=O)OCc2c1cc1n(c2=O)Cc2cc3ccccc3nc2-1 (centres undefined) ?
Solution: t

----------
assay: NCI Yeast Anticancer Drug Screen. Data for the rad50EPP+ strain (AID 151);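 further: 0% = growth of vehicle-treated control cultures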; details: S. cerevisiae rad50 mutant strain, at 33.0 µM
This is part of a sample that, as a whole, favours compounds with a hit. Of some 79,000 tested, about 15% had one in any assay. Calls of active or inactive are those of the source. No stated cut-off is given here; in the data, active means growth inhibition above about 70%; inactive means the rest.
Allowed answers: True (active), False (inactive)

Exercise: Would you mind telling me which call this test gave CCCCCCCCCCCCCCCCP(=O)(O)OP(=O)(O)OCC1OC(n2ccc(N)nc2=O)C(O)C1O (centres undefined) ?
Solution: False

---
Exercise: What call does the record list for Nc1nc(N)c2c(Cl)c(CNc3ccc(C(=O)NC(CC(=O)O)C(=O)O)cc3)ccc2n1 (centres undefined) ?
Solution: False

Exercise: Hi, sorry to bother you, what did the test record for S=C1NC2(CCCCC2)NC12CCCCC2 ?
Solution: False

Exercise: Recorded test call requested for CCC1(OC(=O)CN)C(=O)OCc2c1cc1n(c2=O)Cc2cc3ccccc3nc2-1 (centres undefined)
Solution: True

Exercise: // param item: O=[N+]([O-])c1ccc(N2CCC(CCCC3CCN(c4ccc([N+](=O)[O-])cc4[N+](=O)[O-])CC3)CC2)c([N+](=O)[O-])c1 ; yields the recorded call
Solution: False

Exercise: Hi team, can someone confirm the assay call for O=C1c2ccccc2C(=O)C(Cl)C1Cl (centres undefined) ?
Solution: True

Exercise: Field: outcome | Entry: O=P(CCCCP(=O)(c1ccccc1)c1ccccc1)(c1ccccc1)c1ccccc1.[Cl][Sn]([Cl])([c]1ccccc1)[c]1ccccc1
Solution: False

Exercise: What did this assay record as the result for O=S(=O)(O)c1ccc(Cl)cc1.[Cd] ?
Solution: False

Exercise: Per the records of this test, what outcome belongs to OC1CCCC2CCC[N-]C12.OC1CCCC2CCC[N-]C12.[O]=[V][OH] (centres undefined) ?
Solution: True

----------
assay: NCI Yeast Anticancer Drug Screen. Data for the mlh1 rad18 strain (AID 175); settings: S. cerevisiae mlh1 rad18 strain growth inhibition; at 50.0 µM (retest, dose inferred, filed as 5.0)
This is part of a sample that, as a whole, favours compounds with a hit. Of some 79,000 tested, about 15% had one in any assay. The source made the active and inactive calls. No stated cut-off is given here; in the data, active means growth inhibition above about 70%; inactive means the rest.
# valid calls are active, inactive; nothing else

Record excerpt, results attached:
Exercise: I would be grateful if you could indicate the recorded call for [Cl][Hg][Cl] .
Solution: active

Exercise: What outcome does the record of this test show for O=Cc1ccc(C(F)(F)F)cc1.[C-]#[O+].[C-]#[O+].[C-]#[O+].[Cr] ?
Solution: active

Exercise: Name the outcome recorded for CCc1cc2c(cc1-c1csc(C/C(N)=N/O)n1)C(C)(C)CCC2(C)C in the assay.
Solution: active

Exercise: Any idea what this test logged for CCCCCCCCCC[Se]C#N ?
Solution: active

Exercise: Called result for CC(C(=O)C1CCCCC1)[n+]1ccccc1 (configuration not stated)
Solution: inactive

Exercise: What outcome does the record of this test show for CCCCCCCCCCCCCCCCP(=O)(O)OCC(N)C(=O)O (configuration not stated) ?
Solution: inactive

Exercise: GET /call?item= COC1C(O)C(C)OC(OC2C(Oc3cccc4c(O)c5c(=O)oc6ccc(C)c7c(=O)oc(c34)c5c67)OC(C)C(O)C2O)C1O (configuration not stated) returns the recorded outcome of this test.
Solution: inactive

Exercise: Name the outcome recorded for C[C@]12CC[C@H](OC(=O)COc3ccc(N(CCCl)CCCl)cc3)C[C@@H]1CC[C@@H]1[C@@H]2CC[C@]2(C)NC(=O)CC[C@@H]12 in the assay.
Solution: inactive

Exercise: Call for entry CCCCCCCCCCCCCCCc1cccc(O)c1O :
Solution: inactive

Exercise: GET /call?item= COc1ccc2c3c1OC1C(=O)C4CC5(c6c(O)ccc(O)c64)C(C2)N(C)CCC315 (configuration not stated) returns the recorded outcome of this test.
Solution: active

***
Exercise: // return assay outcome for CN(C)CC(Cl)CCl (configuration not stated)
Solution: active

Exercise: GET /call?item= CC12CCC(C)(c3cc(O)c(O)cc31)c1cc(O)c(O)cc12 returns the recorded outcome of this test.
Solution: inactive
